System: osteoclast differentiation
Test: Inhibitory effects on osteoclast differentiation (co-culture of bone marrow cells with osteoblast, TRAP staining)
Format: cell-based, mice
Details: Mus musculus, Osteoclast, 168 h; 1 m; co-culture of bone marrow cells and osteoblast, 7 days, TRAP-positive osteoclasts versus controls; read-out: % inhibitory activity on osteoclastogenesis
// label = rule met if inhibition at 1 µM is not less than 80%, otherwise rule not met

Reference set, count: 4
                                   compound      category
0  C=Cc1sc(N2CCOCC2)nc1-c1ccc(OCCCCCOc2ccc(C(=N)NO)cc2)cc1      rule met
1  CCN(CCO)c1nc(-c2ccc(OCCCCCOc3ccc(C(=N)NO)cc3)cc2)c(C)s1  rule not met
2  N=C(N)Nc1nc(-c2ccc(OCCCCCOc3ccc(C(=N)NO)cc3)cc2)c(Cc2ccccc2)s1  rule not met
3  CN(C)c1nc(-c2ccc(OCCCCCOc3ccc(C(=N)NO)cc3)cc2)c(CC2CCCC2)s1      rule met

query: Determine whether this compound has inhibition at 1 µM no lower than 80%: "Cc1sc(NC(=O)CO)nc1-c1ccc(OCCCCCOc2ccc(C(=N)NO)cc2)cc1"
result: rule not met

query: Determine whether this compound has inhibition at 1 µM no lower than 80%: "CCc1sc(N(CC)Cc2cccnc2)nc1-c1ccc(OCCCCCOc2ccc(C(=N)NO)cc2)cc1"
result: rule not met

query: Determine whether this compound has inhibition at 1 µM no lower than 80%: "CNc1nc(-c2ccc(OCCCCCOc3ccc(C(=N)NO)cc3)cc2)c(CCCl)s1"
result: rule met

query: Determine whether this compound has inhibition at 1 µM no lower than 80%: "N=C(NO)c1ccc(OCCCCCOc2ccc(-c3nc(-c4cccnc4)sc3CCCl)cc2)cc1"
result: rule met

* * *

Test system: osteoclast differentiation
Test: Inhibitory effects on osteoclast differentiation (co-culture of bone marrow cells with osteoblast, TRAP staining)
Type: cell-based, mice
Conditions: Mus musculus, Osteoclast, 168 h; 1 m; co-culture of bone marrow cells and osteoblast, 7 days, TRAP-positive osteoclasts versus controls; read-out: % inhibitory activity on osteoclastogenesis
Measured inhibition at 1 µM values are reported for all entries that follow.
Hi! Could you send only the number? It should be in %, unit omitted.

A selection of reference data follows.
In [3]: df
Out[3]:
                                   compound  reported_value
0  N=C(NO)c1ccc(OCCCCCOc2ccc(-c3nc(NC(=O)c4ccncc4)sc3CC3CCCC3)cc2)cc1 [Example 112]            76.8
1  Cc1sc(N(C)Cc2ccccc2)nc1-c1ccc(OCCCCCOc2ccc(C(=N)NO)cc2)cc1 [Example 125]              73

query: Please give the documented inhibition at 1 µM of CCN(Cc1ccccc1)c1nc(-c2ccc(OCCCCCOc3ccc(C(=N)NO)cc3)cc2)c(C)s1 [Example 127]
result: 41.5

query: Please give the documented inhibition at 1 µM of Cc1sc(N(C)CCN2CCOCC2)nc1-c1ccc(OCCCCCOc2ccc(C(=N)NO)cc2)cc1 [Example 123]
result: 26.3

query: Please give the documented inhibition at 1 µM of CCNc1nc(-c2ccc(OCCCCCOc3ccc(C(=N)NO)cc3)cc2)c(CC2CCCC2)s1 [Example 110]
result: 100

query: Please give the documented inhibition at 1 µM of CCc1sc(C2CCCCC2)nc1-c1ccc(OCCCCOc2ccc(C(=N)NO)cc2)cc1 [Example 196]
result: 82

query: Please give the documented inhibition at 1 µM of CCc1sc(N(C)Cc2cccnc2)nc1-c1ccc(OCCCCCOc2ccc(C(=N)NO)cc2)cc1 [Example 134]
result: 63.7

Origin of measurements: patent US8178688B2
